- testedOn: human GLP-1 receptor (human, UniProt P43220 24-463)
- assayInfo: cell-based or functional assay
Kindly supply the reported cAMP EC50 (1.0% HSA) values for the records listed here.
Give bare numbers, in nM.

Reference set (5 entries):
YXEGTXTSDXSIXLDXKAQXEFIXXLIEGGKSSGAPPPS (Aib2, αMeF(2F)6, αMeF(2F)10, αMeL13, Orn16, Aib20, D-Glu24, αMeY25; acylated K17, K31 (groups as in name); C-terminal amide)    80
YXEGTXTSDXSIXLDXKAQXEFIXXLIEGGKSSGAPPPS (Aib2, αMeF(2F)6, ChA10, αMeL13, Orn16, Aib20, D-Glu24, αMeY25; acylated K17, K31 (groups as in name); C-terminal amide)    58.1
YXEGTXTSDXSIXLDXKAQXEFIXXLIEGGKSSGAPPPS (Aib2, αMeF(2F)6, Bip10, αMeL13, Orn16, Aib20, D-Glu24, αMeY25; acylated K17, K31 (groups as in name); C-terminal amide)    70.5
YXEGTXTSDXSIXLDXIAQXEFIKXLIEGGPSSGAPPPSK (Aib2, αMeF(2F)6, 4Pal10, αMeL13, Orn16, Aib20, αMeY25; acylated K24, K40 (groups as in name); C-terminal amide)    21.2
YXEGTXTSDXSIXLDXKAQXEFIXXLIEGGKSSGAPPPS (Aib2, αMeF(2F)6, Ac6c10, αMeL13, Orn16, Aib20, D-Glu24, αMeY25; acylated K17, K31 (groups as in name); C-terminal amide)    20.3

Please examine the following record next.
Need cAMP EC50 (1.0% HSA), item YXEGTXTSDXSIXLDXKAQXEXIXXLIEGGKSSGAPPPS (Aib2, αMeF(2F)6, 4Pal10, αMeL13, Orn16, Aib20, 3,5FPhe22, D-Glu24, αMeY25; acylated K17, K31 (groups as in name); C-terminal amide)
25.5

The measurements presented in this section are drawn from patent US20230265151A1.
